Below is a list of entries, each paired with its recorded abundance fitness value.
B1: Spectrin alpha chain, erythrocytic 1, residues 979 to 1036; numbered along this chain, P02549 (parent)
chain: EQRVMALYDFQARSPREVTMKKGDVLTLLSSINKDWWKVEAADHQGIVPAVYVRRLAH

variants of: B1; experiment: abundance fitness (aPCA) (normalised: wild type 0, dead -1); higher = more abundant; growth selection in yeast, the domain comes from the species named; conditions: Homo sapiens
Note: the reply should be a number with no unit written.

EQHVMALYDFQARSPREVTMKKGDVLTLLSSINKDWWKVEAADHQGIVPAVYVRRLAH [R3H]; -0.408
EQRVMALYDFQARSPREVTGKKGDVLTLLSSINKDWWKVEAADHQGIVPAVYVRRLAH [M20G]; -0.829
EQRVMALYDFQARSPREVTMKKGDVLTLLSSINKDWWKVEAADHQGIVPAWYVRRLAH [V51W]; -0.18
EQRVMAVYDFQARSPREVTMKKGDVLTLLSSINKDWWKVEAADHQGIVPAVYVRRLAH [L7V]; -0.199
EQRVMALYDFQARSPREVTMKEGDVLTLLSSINKDWWKVEAADHQGIVPAVYVRRLAH [K22E]; -0.819

Look at this variant and give its reported abundance fitness. EQAVMALYDFQARSPREVTMKKGDVLTLLSSINKDWWKVEAADHQGIVPAVYVRRLAH [R3A]
-0.574

Given the entry EQRVAALYDFQARSPREVTMKKGDVLTLLSSINKDWWKVEAADHQGIVPAVYVRRLAH [M5A] , report its measured abundance fitness.
-0.587

Fill in the blank: the reported abundance fitness of EQRVMALYDFQARSPREVTMKKGDVVTLLSSINKDWWKVEAADHQGIVPAVYVRRLAH [L26V] is ____.
-0.767

What value of measured abundance fitness is listed for EQRVMALYDFQARSPREVTMKKGDVLTLLSSINKDWWKVEAADHQGIVPAVYVRRVAH [L56V] ?
-0.207
